Please go through the items and note down their IC50.
# system-name: Baculoviral IAP repeat-containing protein 2 (Homo sapiens, UniProt Q13490)
# Sequence (Q13490 whole entry, the tested form may be a part): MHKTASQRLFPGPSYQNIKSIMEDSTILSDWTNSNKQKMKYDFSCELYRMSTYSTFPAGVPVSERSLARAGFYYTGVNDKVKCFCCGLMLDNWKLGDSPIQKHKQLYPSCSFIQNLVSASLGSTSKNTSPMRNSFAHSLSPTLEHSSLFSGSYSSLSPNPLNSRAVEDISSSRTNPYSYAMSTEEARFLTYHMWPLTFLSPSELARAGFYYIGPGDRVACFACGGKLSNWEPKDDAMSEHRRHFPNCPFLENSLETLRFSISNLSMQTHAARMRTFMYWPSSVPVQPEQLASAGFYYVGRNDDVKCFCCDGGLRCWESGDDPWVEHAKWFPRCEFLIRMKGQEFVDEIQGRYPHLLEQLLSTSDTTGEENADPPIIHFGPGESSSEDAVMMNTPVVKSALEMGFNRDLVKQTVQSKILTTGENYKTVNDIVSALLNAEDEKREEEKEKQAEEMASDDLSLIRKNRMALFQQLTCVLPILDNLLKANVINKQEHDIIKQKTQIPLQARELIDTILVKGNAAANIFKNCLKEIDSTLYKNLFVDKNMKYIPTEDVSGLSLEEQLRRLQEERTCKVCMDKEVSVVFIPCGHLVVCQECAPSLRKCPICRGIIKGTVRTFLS
# experimental-details: In vitro Competitive Displacement Binding Assays : Modified SMAC peptides and compounds were tested for their ability to displace the fluorescent tracer from either XIAP, clAP-1 or clAP-2. BIR3 domains of clAP-1 , clAP-2 and XIAP were incubated with test compounds or SMAC based peptides and their respective peptide probes (Peptide Protein Research) in assay buffer (50mM Hepes pH 7.5, […] Tween-
Answers are plain numbers, in µM.

{"input-smiles": "COC[C@H]1CN[C@H](C)CN1CC(=O)N1CC(C)(C)c2cnc(CCC(C)C)cc21", "units-label": "µM", "IC50": 0.016}

The molecule C[C@@H]1CN(CC(=O)N2CCc3ccc(Br)cc32)CCN1 showed IC50 equal to 40

---

# system-name: E3 ubiquitin-protein ligase XIAP (Homo sapiens)
# Sequence (P98170 whole entry, the tested form may be a part): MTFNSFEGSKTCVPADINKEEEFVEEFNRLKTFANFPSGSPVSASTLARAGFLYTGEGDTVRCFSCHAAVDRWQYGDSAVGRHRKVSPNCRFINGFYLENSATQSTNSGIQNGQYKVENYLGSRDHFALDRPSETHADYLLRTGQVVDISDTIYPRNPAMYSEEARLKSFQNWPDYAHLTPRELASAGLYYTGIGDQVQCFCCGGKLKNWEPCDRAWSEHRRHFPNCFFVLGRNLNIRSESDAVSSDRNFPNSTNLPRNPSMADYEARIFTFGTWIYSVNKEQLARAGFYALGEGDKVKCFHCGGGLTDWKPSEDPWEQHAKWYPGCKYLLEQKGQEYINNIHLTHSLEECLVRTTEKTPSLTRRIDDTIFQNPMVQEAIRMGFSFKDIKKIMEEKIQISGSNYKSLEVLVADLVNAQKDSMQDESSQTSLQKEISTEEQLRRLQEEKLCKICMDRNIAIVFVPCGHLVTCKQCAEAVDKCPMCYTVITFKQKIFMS
# experimental-details: In vitro Competitive Displacement Binding Assays : Modified SMAC peptides and compounds were tested for their ability to displace the fluorescent tracer from either XIAP, clAP-1 or clAP-2. BIR3 domains of clAP-1 , clAP-2 and XIAP were incubated with test compounds or SMAC based peptides and their respective peptide probes (Peptide Protein Research) in assay buffer (50mM Hepes pH 7.5, […] Tween-
quantity: IC50
Reply with the number and its unit after it.

The molecule CC(C)[C@H]1CN[C@H](C)CN1CC(=O)N1CCc2ccc(Br)cc21 showed IC50 equal to 2.4 µM
